Ref: patent US9187450B2

Target: recombinant human CETP protein (Homo sapiens (Human), UniProt P11597)
Sequence (P11597 18-493): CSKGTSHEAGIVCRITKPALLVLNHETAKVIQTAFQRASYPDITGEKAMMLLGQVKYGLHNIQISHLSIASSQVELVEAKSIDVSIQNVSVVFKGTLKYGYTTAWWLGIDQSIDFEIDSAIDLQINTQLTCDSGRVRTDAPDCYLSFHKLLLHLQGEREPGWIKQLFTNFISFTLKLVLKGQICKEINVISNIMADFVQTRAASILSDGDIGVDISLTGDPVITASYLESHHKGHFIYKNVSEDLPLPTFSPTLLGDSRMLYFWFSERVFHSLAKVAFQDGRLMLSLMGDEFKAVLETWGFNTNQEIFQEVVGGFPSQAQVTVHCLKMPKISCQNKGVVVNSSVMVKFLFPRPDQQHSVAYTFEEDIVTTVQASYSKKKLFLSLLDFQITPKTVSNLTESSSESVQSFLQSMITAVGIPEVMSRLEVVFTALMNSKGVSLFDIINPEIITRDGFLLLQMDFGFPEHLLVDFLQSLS
Experiment: Test of CETP inhibition activity (in vitro, buffer-based)
Details: reconstituted HDL with [14C]-labeled cholesteryl ester, acceptor lipoprotein, 37° C.
pIC50: −log10 of the molar value.
readout: pIC50

Answered cases to consult:
- CC1(C)Cc2nc(C3CCN(c4ncc(OCCCCC(=O)O)cn4)CC3)c([C@@H](F)c3ccc(C(F)(F)F)cc3)c(C3CCC(F)(F)CC3)c2[C@@H](O)C1 (single isomer, unassigned): 7.43
- CC1(C)Cc2nc(C3CCN(c4ncc(C(=O)N5CCOCC5)cn4)CC3)c([C@@H](F)c3ccc(C(F)(F)F)cc3)c(C3CCC(F)(F)CC3)c2[C@@H](O)C1 (single isomer, unassigned): 7.72
- C[C@H](O)COc1cnc(N2CCC(c3nc4c(c(C5CCC(F)(F)CC5)c3[C@@H](F)c3ccc(C(F)(F)F)cc3)[C@@H](O)CC(C)(C)C4)CC2)nc1: 7.60
- CC1(C)Cc2nc(C3CCN(c4ncc(OC[C@@H](O)CO)cn4)CC3)c([C@@H](F)c3ccc(C(F)(F)F)cc3)c(C3CCC(F)(F)CC3)c2[C@@H](O)C1: 7.49

[P] CCOCc1cnc(N2CCC(c3nc4c(c(C5CCC(F)(F)CC5)c3[C@@H](F)c3ccc(C(F)(F)F)cc3)[C@@H](O)CC(C)(C)C4)CC2)nc1 (single isomer, unassigned)
[Q] CC1(C)Cc2nc(C3CCN(c4ncc(C5CC5)cn4)CC3)c([C@@H](F)c3ccc(C(F)(F)F)cc3)c(C3CCC(F)(F)CC3)c2[C@@H](O)C1 (single isomer, unassigned)
Kindly identify which of P and Q has the larger recorded pIC50 value. State the label of the item chosen. P
